# IC50 against RON (Homo sapiens, UniProt Q04912), merged from multiple literature sources

Some solved entries appear below for comparison.
> print(dat)
                                   compound          result
1  Cc1cccc(-n2ncc(C(=O)Nc3ccc(Oc4ccnc5[nH]c(=O)n(C(C)C)c45)c(F)c3)c2C(F)(F)F)n1         < 50 nM
2  CCc1c(C(=O)Nc2cc(F)c(Oc3ccnc(N)c3Cl)c(F)c2)cnn1-c1ncccc1F         < 50 nM
3  CC(C)n1c(=O)[nH]c2nccc(Oc3ccc(NC(=O)c4ccn(-c5ccccc5)n4)cc3F)c21  500 to 5000 nM
4  Nc1nccc(-c2cc(-c3ccc(NC(=O)c4ccc(CO)n(-c5ccc(F)cc5)c4=O)cc3F)ccc2O)n1          855 nM
5  CCc1c(C(=O)Nc2ccc(Oc3ccnc(N)c3Cl)c(F)c2)cnn1-c1ncccc1Cl    50 to 500 nM

Please look up its IC50: CC(O)C#Cc1c(Oc2c(F)cc(NC(=O)c3cnn(-c4ncccc4F)c3C(F)(F)F)cc2F)ccnc1N (stereo not drawn)
< 50 nM

Same again, this time with CC(C)n1c(=O)[nH]c2nccc(Oc3ccc(NC(=O)c4cnn(-c5ccccn5)c4C(F)(F)F)cc3F)c21
< 50 nM

Same again, this time with CC(C)n1c(=O)[nH]c2nccc(Oc3ccc(NC(=O)c4cnn(-c5ccccc5)c4-c4ccccc4)cc3F)c21
50 to 500 nM

Same again, this time with Nc1nccc(Oc2ccc(NC(=O)c3cnn(-c4cc(Cl)ccn4)c3C(F)(F)F)cc2F)c1Cl
50 to 500 nM

Same again, this time with Nc1nccc(Oc2ccc(NC(=O)c3ncn(-c4ccccc4)c3C(F)(F)F)cc2F)c1I
< 50 nM

Same again, this time with CCOc1ccn(-c2ccc(F)cc2)c(=O)c1C(=O)Nc1ccc(-c2ccc3nc(N)sc3n2)c(C)c1
5120 nM

Same again, this time with Nc1nccc(Oc2c(F)cc(NC(=O)c3cnn(-c4cccnn4)c3C(F)(F)F)cc2F)c1Cl
< 50 nM

Same again, this time with CCc1c(C(=O)Nc2ccc(Oc3ccnc(N)c3I)c(F)c2)cnn1-c1ncccc1Cl
< 50 nM

Same again, this time with CC(C)n1c(=O)[nH]c2nccc(Oc3ccc(NC(=O)c4cnn(-c5ccccc5Cl)c4C(F)(F)F)cc3F)c21
< 50 nM

Same again, this time with Nc1nccc(Oc2ccc(NC(=O)c3cc(C4CC4)cn(-c4ccc(F)cc4)c3=O)cc2F)c1Cl
2 nM

Same again, this time with Cn1ncc(C(=O)Nc2ccc(Oc3ccnc(N)c3Cl)c(F)c2)c1C(F)F
500 to 5000 nM

Same again, this time with Nc1ncnc(Oc2ccc(NC(=O)c3cnn(-c4ccc(F)cn4)c3C(F)(F)F)cc2F)c1Cl
50 to 500 nM

Same again, this time with Nc1nccc(Oc2ccc(NC(=O)c3cnn(-c4ncccc4F)c3C(F)(F)F)cc2F)c1I
< 50 nM
